Biological target: GST-tagged GDP-loaded KRAS G12V (amino acids 1-169) (Homo sapiens, UniProt P01116, G12V)
Sequence (P01116 1-169 isoform P01116-2 G12V): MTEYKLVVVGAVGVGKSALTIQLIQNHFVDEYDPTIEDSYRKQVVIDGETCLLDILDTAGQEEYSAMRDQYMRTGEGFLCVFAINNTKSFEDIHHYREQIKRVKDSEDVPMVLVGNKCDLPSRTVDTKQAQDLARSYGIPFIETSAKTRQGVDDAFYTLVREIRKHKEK
Test: KRAS G12V probe displacement assay (TR-FRET)
Conditions: Table 4; KRAS G12V 2 nM, biotinylated probe 2 2.5 nM
Protocol: Plates are incubated at 24 °C for 1 hr. […] After 1 hr incubation at 24° C.
The threshold is 6 nM. Values of IC50 beneath it are tagged Y; values meeting or exceeding it are tagged N.

Known results for compounds:
compound=CN1c2nc(OC[C@@]34CCCN3C[C@H](F)C4)nc3c(F)c(-c4cc(N)cc(Cl)c4C(F)(F)F)nc(c23)OC[C@H]2CCC[C@H]21 assigned_class=N
compound=Nc1cc(Cl)c(C(F)(F)F)c(-c2nc3c4c(nc(OC[C@@]56CCCN5C[C@H](F)C6)nc4c2F)N(CCO)CCO3)c1 assigned_class=Y
compound="CN1c2nc(OC[C@@]34CCCN3C[C@H](F)C4)nc3c(F)c(-c4cc(N)cc(Cl)c4C(F)(F)F)nc(c23)OC2CCCC21 (stereo partly drawn)" assigned_class=Y
compound="CC1CCOc2nc(-c3cc(N)cc(Cl)c3C(F)(F)F)c(F)c3nc(OC[C@@]45CCCN4C[C@H](F)C5)nc(c23)N1C (stereo partly drawn)" assigned_class=Y
compound=C#Cc1c(F)ccc2cc(O)cc(-c3nc4c5c(nc(OC[C@@]67CCCN6C[C@H](F)C7)nc5c3F)N(C3CC3)CCCO4)c12 assigned_class=Y

Please state whether IC50 is below 6 nM for CC1COc2nc(-c3cc(N)cc(Cl)c3C(F)(F)F)c(F)c3nc(OC[C@@]45CCCN4C[C@H](F)C5)nc(c23)N(C)C1 (stereo partly drawn) N

Determine if C=C1CN2CCC[C@@]2(COc2nc3c4c(nc(-c5cc(N)cc(Cl)c5C(F)(F)F)c(F)c4n2)O[C@H]2COCC[C@@H]2N3C)C1 shows IC50 strictly lower than 6 nM. Y

Does CC1CCN(C)c2nc(OC[C@@]34CCCN3C[C@H](F)C4)nc3c(F)c(-c4cc(N)cc(Cl)c4C(F)(F)F)nc(c23)O1 (stereo partly drawn) have IC50 strictly under 6 nM? N

====

target: GST-tagged GDP-loaded KRAS G12D (amin acids 1-188) (Homo sapiens, UniProt P01116, G12D); experiment: KRAS G12D probe displacement assay (TR-FRET); conditions: Table 5; KRAS G12D 0.5 nM, biotinylated probe 2 4 nM
Sequence (P01116 1-188 isoform P01116-2 G12D): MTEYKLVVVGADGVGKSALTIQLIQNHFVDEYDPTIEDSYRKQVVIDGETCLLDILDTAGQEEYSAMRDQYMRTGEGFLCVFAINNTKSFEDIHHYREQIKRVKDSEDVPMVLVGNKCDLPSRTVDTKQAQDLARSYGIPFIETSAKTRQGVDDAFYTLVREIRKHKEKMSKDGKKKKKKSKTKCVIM
pIC50: −log10 of the molar value.
Classification field: enter 1 (yes) for pIC50 values not below 9, 0 (no) for values below it.

// below: answered compounds
compound="CN1c2nc(OC[C@@]34CCCN3C[C@H](F)C4)nc3c(F)c(-c4cc(N)cc(Cl)c4C(F)(F)F)nc(c23)O[C@@H]2CCOC[C@H]21 [Example 51]" assigned_class="1 (yes)"
compound="C=C1CN2CCC[C@@]2(COc2nc3c4c(nc(-c5cc(N)cc(Cl)c5C(F)(F)F)c(F)c4n2)O[C@H]2COCC[C@@H]2N3C)C1 [Example 62]" assigned_class="1 (yes)"
compound="CCN1c2nc(OC[C@@]34CCCN3C[C@H](F)C4)nc3c(F)c(-c4cc(N)cc(Cl)c4C(F)(F)F)nc(c23)OCCC12COC2 [Example 35]" assigned_class="1 (yes)"
compound="CC(CN(C)C)N1CCCOc2nc(-c3cc(N)cc(Cl)c3C(F)(F)F)c(F)c3nc(OC[C@@]45CCCN4C[C@H](F)C5)nc1c23 (stereo partly drawn) [Example 40]" assigned_class="0 (no)"
compound="CN1c2nc(OC[C@@]34CCCN3C[C@H](F)C4)nc3c(F)c(-c4cc(N)cc(Cl)c4C(F)(F)F)nc(c23)OCCC12COC2 [Example 30]" assigned_class="1 (yes)"

Does the compound CN1CCCOc2cc(-c3ccc(F)c4sc(N)c(C#N)c34)c(F)c3nc(OC[C@@]45CCCN4C[C@H](F)C5)nc1c23 [Example 2] have recorded pIC50 that is 9 or more? 0 (no)

Quick check: does Nc1cc(Cl)c(C(F)(F)F)c(-c2nc3c4c(nc(OC[C@@]56CCCN5C[C@H](F)C6)nc4c2F)N([C@@H]2CCNC2)CCCO3)c1 [Example 41] have pIC50 greater than or equal to 9? 0 (no)

Item Cc1cc(N)cc(-c2nc3c4c(nc(OC[C@]56CCC[C@H]5N(C)CCC6)nc4c2F)N(C)[C@H]2CCOC[C@@H]2O3)c1C(F)(F)F [Example 65] with pIC50 of 9 or above? 1 (yes)

// provenance: patent US20240262848A1
